target: human ether-à-go-go-related gene (hERG) potassium channel (human); experiment: primary screen, population patch clamp on CHO cells stably expressing hERG; higher = less effect of the substance;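 also: peak tail current of the secondary pulse compared with the same well before compound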
Sequence (Q12809 whole entry, looked up): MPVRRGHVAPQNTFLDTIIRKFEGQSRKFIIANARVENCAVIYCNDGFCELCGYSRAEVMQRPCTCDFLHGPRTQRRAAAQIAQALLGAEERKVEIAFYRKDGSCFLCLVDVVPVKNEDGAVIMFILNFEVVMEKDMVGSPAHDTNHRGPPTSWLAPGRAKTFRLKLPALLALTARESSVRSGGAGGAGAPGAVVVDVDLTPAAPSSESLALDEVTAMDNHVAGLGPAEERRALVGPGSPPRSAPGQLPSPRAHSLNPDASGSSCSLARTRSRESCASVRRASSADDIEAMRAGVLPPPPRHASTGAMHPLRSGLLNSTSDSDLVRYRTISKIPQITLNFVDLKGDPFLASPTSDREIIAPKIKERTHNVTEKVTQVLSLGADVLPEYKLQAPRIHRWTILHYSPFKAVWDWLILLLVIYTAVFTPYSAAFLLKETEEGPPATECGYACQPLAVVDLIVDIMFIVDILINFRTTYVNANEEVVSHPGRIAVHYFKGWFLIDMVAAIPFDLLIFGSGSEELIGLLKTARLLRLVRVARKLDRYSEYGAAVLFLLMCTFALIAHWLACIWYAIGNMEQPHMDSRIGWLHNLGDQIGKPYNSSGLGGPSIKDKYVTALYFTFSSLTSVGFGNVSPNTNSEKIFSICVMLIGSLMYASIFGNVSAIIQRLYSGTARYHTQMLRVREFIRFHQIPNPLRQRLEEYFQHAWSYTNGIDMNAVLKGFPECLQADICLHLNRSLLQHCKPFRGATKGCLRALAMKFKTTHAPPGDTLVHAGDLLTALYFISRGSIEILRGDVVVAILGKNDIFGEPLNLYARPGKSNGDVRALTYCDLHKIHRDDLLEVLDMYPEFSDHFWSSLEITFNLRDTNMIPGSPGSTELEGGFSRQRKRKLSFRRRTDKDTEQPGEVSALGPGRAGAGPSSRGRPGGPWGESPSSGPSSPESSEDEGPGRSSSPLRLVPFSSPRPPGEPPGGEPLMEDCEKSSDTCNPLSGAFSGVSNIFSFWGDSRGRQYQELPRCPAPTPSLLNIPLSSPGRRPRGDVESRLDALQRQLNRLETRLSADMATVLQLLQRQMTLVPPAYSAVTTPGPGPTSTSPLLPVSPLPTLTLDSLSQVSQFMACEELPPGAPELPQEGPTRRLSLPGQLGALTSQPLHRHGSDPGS
Out of some 310,000 compounds screened, about 14,000 (4.5%) showed an effect of 50% or more. The effect is printed as a negative number. For the sample, strong results were picked, then their nearest neighbours and some compounds at random.
hERG current change (%, negative = inhibition) at 10uM listing for selected compounds.
Report the figure in % without appending any unit label.

Worked examples, 5 compounds total:
{"COMPOUND": "COCCNC(=O)c1c(N)n(/N=C/c2ccc(F)cc2)c2nc3ccccc3nc12", "ASSAY VALUE": -0.595}
{"COMPOUND": "Cc1cc(C(F)F)n2ncc(C(=O)NC3CCCCCC3)c2n1", "ASSAY VALUE": -11.5}
{"COMPOUND": "CCN(CC(=O)Nc1c(F)cccc1F)C(=O)Cc1csc(-c2ccc(OC)c(OC)c2)n1", "ASSAY VALUE": -2.82}
{"COMPOUND": "CC(C)C(c1nnnn1Cc1ccccc1)N1CCN(Cc2ccc3c(c2)OCO3)CC1 (centres unmarked)", "ASSAY VALUE": -52}
{"COMPOUND": "CC(C)C(c1nnnn1Cc1ccc(F)cc1)N1CCN(Cc2ccc3c(c2)OCO3)CC1 (centres unmarked)", "ASSAY VALUE": -43.3}

input: Quick one: hERG current change (%, negative = inhibition) at 10uM for `COc1ccc(NC(=O)CCN2CCN(c3ccc(F)cc3)CC2)cc1` ?
output: -33

input: Next entry: `CCN(CC)CCn1c2c(c(SCC(=O)Nc3ccc(C)c(F)c3)nc1=O)CCC2`
output: -63.8

input: Next entry: `O=C(CCN1CCN(c2ccc(F)cc2)CC1)Nc1ccc(F)cc1`
output: -56.8

input: Next entry: `CN(C)CCCn1c2c(c(SCC(=O)Nc3ccc4c(c3)OCO4)nc1=O)CCC2`
output: -10.7

input: Next entry: `c1ccc(Cn2nnnc2CN2CCN(Cc3ccc4c(c3)OCO4)CC2)cc1`
output: -61.1

input: Next entry: CC1=C(C(N)=O)C(c2cccs2)n2nc(-c3cccc(Cl)c3)nc2N1 (centres unmarked)
output: -24.9

input: Next entry: `Cc1ccc(C(=O)NCc2n[nH]c(=S)n2-c2ccccc2)cc1[N+](=O)[O-]`
output: 7.76

Values were extracted from paper PMC4336329.
